The reported numbers originate from the RNAGym collection of RNA variant scans (doi:10.7554/elife.80360).

Each entry below carries its recorded self-cleavage.
B1: Hairpin Ribozyme (parent)
chain: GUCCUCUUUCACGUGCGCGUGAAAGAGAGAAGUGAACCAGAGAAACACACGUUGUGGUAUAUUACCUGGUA

Variants of: B1
Assay: self-cleavage, relative activity (ratio to wild type); higher = more cleavage; co-transcriptional
No unit in the answer, only the number.

G29A    0.126
G21A G57A    0.192
G32U A44C    0.112
G32C C50G    0.14
C16U A36G    1.34
A47C U53A    0.28
U58A U62G    0.296
G19U U60G    0.444

Data request: Give me measured self-cleavage, please, for this variant: C4G U8G
Data returned: 0.0927

Data request: Check the records and state self-cleavage for A31U A41G
Data returned: 0.0486

Data request: Supply recorded self-cleavage for U20G U53C here.
Data returned: 0.633
